Field: IC50. Provide a value for each of the molecules that follow.
Test system: S. Typhi PhoP-promoter GFP reporter, fluorescence, 4 h
TEST PROTOCOL: PhoP regulon inhibitor project modified counter assay, GFP fluorescence readout, dose response (AID 1985)

Would you kindly share the measured IC50 for O=C(/C=C/c1ccccc1Cl)c1ccccc(=O)c1O ? 37.9 µM

Also CN(C)CCCNC(=S)NCC(c1ccc(Cl)cc1Cl)c1c[nH]c2ccccc12 (stereo not given) ? 36.5 µM

Item: Cc1ccc(NC(=O)CSC(N)=O)cc1Cl 33.4 µM

Please do the same for C=C1c2c(Cl)ccc(O)c2C(O)=C2C(=O)[C@]3(O)C(O)=C(C(N)=O)C(=O)[C@@H](N(C)C)[C@@H]3[C@@H](O)C12 (stereo not given in full) as well. 0.924 µM

Next molecule: CCN1CCN(C2=C(NS(=O)(=O)c3ccc(Br)cc3)C(=O)c3ccccc3C2=O)CC1 47.4 µM

Try Nc1nc(F)nc2c1ncn2[C@@H]1O[C@H](CO)[C@@H](O)[C@H]1O next. 3.76 µM

Now consider CC(=O)Nc1ccc(S(=O)(=O)NNc2cccc(C)c2)cc1 . 58.9 µM

How about Cc1cccc(NC2=NC3(CCCCC3)N=C(N)N2)c1 ? 88.4 µM

Field entry: O=C(N[C@H](CO)[C@H](O)c1ccc([N+](=O)[O-])cc1)C(Cl)Cl 2.71 µM

Also Cc1cc(C2N=C(N)Nc3nc4ccccc4n32)c(C)n1-c1ccccc1Cl (stereo not given) ? 88.3 µM
